assay_summary: Concentration which elicits cytotoxicity in 50% of uninfected human lymphocyte derived CEM cells
Format: cell-based, CCRF-CEM
condition_set: uninfected CCRF-CEM cells, read-out: TC50 (the source's name)

| compound | CC50 / µM |
| --- | --- |
| Cc1cc(SC2=C(O)OC(CCc3ccc(O)cc3)(C(C)C)CC2=O)c(C(C)(C)C)cc1OS(=O)(=O)N(C)C (centres undefined) | 70 |
| Cc1cc(SC2=C(O)OC(CCc3ccc(O)cc3)(C(C)C)CC2=O)c(C(C)(C)C)cc1NS(=O)(=O)c1ccc(C(F)(F)F)cn1 (centres undefined) | 68 |
| Cc1cc(SC2=C(O)OC(CCc3ccc(O)cc3)(C(C)C)CC2=O)c(C(C)(C)C)cc1OS(=O)(=O)c1cccs1 (centres undefined) | 72 |
| Cc1cc(SC2=C(O)OC(CCc3ccccc3)(C(C)C)CC2=O)c(C(C)(C)C)cc1N (centres undefined) | 69 |

* * *

System: Human immunodeficiency virus 1
assay_summary: Effective concentration at which 50% of the HIV-IIIB-infected human lymphocyte-derived CEM cells protected from HIV-1 infection
condition_set: Human immunodeficiency virus 1, CCRF-CEM
pEC50: −log10 of the molar value.

| compound | limit_qualifier | pEC50 |
| --- | --- | --- |
| Cc1cc(SC2=C(O)OC(CCc3ccccc3)(C(C)C)CC2=O)c(C(C)(C)C)cc1NS(C)(=O)=O (configuration not stated) | = | 5.80 |
| Cc1cc(SC2=C(O)OC(CCc3ccccc3)(C(C)C)CC2=O)c(C(C)(C)C)cc1OS(=O)(=O)c1cccnc1 (configuration not stated) | = | 5.34 |
| Cc1cc(SC2=C(O)OC(C)(CCc3ccc(O)cc3)CC2=O)c(C(C)(C)C)cc1OS(=O)(=O)c1ccccc1 (configuration not stated) | = | 4.92 |
| Cc1cc(SC2=C(O)OC(CCc3ccc(O)cc3)(C3CCCCC3)CC2=O)c(C(C)(C)C)cc1OS(=O)(=O)c1ccccc1 (configuration not stated) | < | 4.23 |
| Cc1cc(SC2=C(O)O[C@@](CCc3ccccc3)(C(C)C)CC2=O)c(C(C)(C)C)cc1NS(=O)(=O)c1ccc(C(F)(F)F)cn1 | = | 5.23 |
| Cc1cc(SC2=C(O)OC(CCc3ccc(O)cc3)(C(C)C)CC2=O)c(C(C)(C)C)cc1NS(=O)(=O)N(C)C (configuration not stated) | = | 5.77 |
| Cc1cc(SC2=C(O)O[C@](CCc3ccccc3)(C(C)C)CC2=O)c(C(C)(C)C)cc1NS(=O)(=O)c1ccc(C(F)(F)F)cn1 | = | 6.35 |
| Cc1cc(SC2=C(O)OC(CCc3ccccc3)(C(C)C)CC2=O)c(C(C)(C)C)cc1N (configuration not stated) | = | 5.72 |
| Cc1cc(SC2=C(O)OC(CCc3ccc(O)cc3)(C(C)C)CC2=O)c(C(C)(C)C)cc1NS(=O)(=O)c1cccnc1 (configuration not stated) | = | 5.24 |
| Cc1cc(SC2=C(O)O[C@](CCc3ccccc3)(C(C)C)CC2=O)c(C(C)(C)C)cc1NS(=O)(=O)c1ccc(C#N)cc1 | = | 6.66 |
| Cc1cc(SC2=C(O)OC(C)(CCc3ccc(O)cc3)CC2=O)c(C(C)(C)C)cc1NS(=O)(=O)c1ccc(F)cc1 (configuration not stated) | = | 5.25 |
| Cc1cc(SC2=C(O)OC(CCc3ccc(O)cc3)(C(C)C)CC2=O)c(C(C)(C)C)cc1OS(=O)(=O)c1ccc(F)cc1 (configuration not stated) | = | 6.10 |
| Cc1cc(SC2=C(O)OC(CCc3ccc(N)cc3)(C(C)C)CC2=O)c(C(C)(C)C)cc1OS(=O)(=O)c1cccnc1 (configuration not stated) | = | 5.66 |
| Cc1cc(SC2=C(O)OC(CCc3ccccc3)(C(C)C)CC2=O)c(C(C)(C)C)cc1OS(=O)(=O)c1ccccn1 (configuration not stated) | = | 5.85 |
| Cc1cc(SC2=C(O)OC(CCc3ccccc3)(C(C)C)CC2=O)c(C(C)(C)C)cc1OS(=O)(=O)c1ccc(C#N)cc1 (configuration not stated) | = | 5.96 |
| Cc1cc(SC2=C(O)OC(CCc3ccccc3)(C(C)C)CC2=O)c(C(C)(C)C)cc1O (configuration not stated) | = | 5.74 |
| Cc1cc(SC2=C(O)OC(CCc3ccccc3)(C(C)C)CC2=O)c(C(C)(C)C)cc1NS(=O)(=O)c1cccs1 (configuration not stated) | = | 5.68 |
| Cc1cc(SC2=C(O)OC(CCc3ccc(O)cc3)(C3CCCC3)CC2=O)c(C(C)(C)C)cc1NS(=O)(=O)c1ccccc1 (configuration not stated) | = | 5.60 |
| Cc1cc(SC2=C(O)OC(CCc3ccc(O)cc3)(C(C)C)CC2=O)c(C(C)(C)C)cc1OS(C)(=O)=O (configuration not stated) | = | 6.22 |
| Cc1cc(SC2=C(O)OC(CCc3ccc(O)cc3)(C(C)C)CC2=O)c(C(C)(C)C)cc1OS(=O)(=O)c1ccccc1 (configuration not stated) | = | 5.80 |
| CC(=O)Nc1ccc(S(=O)(=O)Nc2cc(C(C)(C)C)c(SC3=C(O)OC(C)(CCc4ccc(O)cc4)CC3=O)cc2C)cc1 (configuration not stated) | = | 4.26 |
| CCNS(=O)(=O)Nc1cc(C(C)(C)C)c(SC2=C(O)OC(CCc3ccccc3)(C(C)C)CC2=O)cc1C (configuration not stated) | = | 5.92 |

* * *

tested_system: Human immunodeficiency virus type 1 protease (Human immunodeficiency virus 1, UniProt Q72874)
pIC50: −log10 of the molar value.
pIC50 for assorted molecules
readout_kind: pIC50

| molecule | readout_kind | observed |
| --- | --- | --- |
| Cc1cc(SC2=C(O)OC(C)(CCc3ccc(O)cc3)CC2=O)c(C(C)(C)C)cc1NS(=O)(=O)c1ccc(-c2cccs2)cc1 (stereo unspecified) | pIC50 | 8.20 |
| Cc1cc(SC2=C(O)OC(CCc3ccc(O)cc3)(C(C)C)CC2=O)c(C(C)(C)C)cc1NS(=O)(=O)c1ccc(C(F)(F)F)cc1 (stereo unspecified) | pIC50 | 7.74 |
| Cc1cc(SC2=C(O)OC(C)(CCc3ccc(O)cc3)CC2=O)c(C(C)(C)C)cc1NS(=O)(=O)c1ccc(C#N)cc1 (stereo unspecified) | pIC50 | 8.68 |
| Cc1cc(SC2=C(O)OC(CCc3ccc(O)cc3)(C(C)C)CC2=O)c(C(C)(C)C)cc1NS(=O)(=O)c1ccc(F)cc1 (stereo unspecified) | pIC50 | 8.39 |
| Cc1cc(SC2=C(O)OC(C)(CCc3ccc(O)cc3)CC2=O)c(C(C)(C)C)cc1NS(=O)(=O)Cn1ccnc1 (stereo unspecified) | pIC50 | 8.72 |
| Cc1cc(SC2=C(O)OC(CCc3ccc(O)cc3)(C3CC3)CC2=O)c(C(C)(C)C)cc1NS(=O)(=O)c1ccccc1 (stereo unspecified) | pIC50 | 8.44 |
| Cc1cc(SC2=C(O)OC(C)(CCc3ccc(O)cc3)CC2=O)c(C(C)(C)C)cc1NS(=O)(=O)c1ccc(F)cc1 (stereo unspecified) | pIC50 | 8.43 |
| Cc1cc(SC2=C(O)OC(CCc3ccc(O)cc3)(C(C)C)CC2=O)c(C(C)(C)C)cc1NS(=O)(=O)c1cccnc1 (stereo unspecified) | pIC50 | 8.59 |
| Cc1cc(SC2=C(O)OC(CCc3ccccc3)(C(C)C)CC2=O)c(C(C)(C)C)cc1NS(=O)(=O)c1cccnc1 (stereo unspecified) | pIC50 | 8.46 |
| Cc1cc(SC2=C(O)OC(CCc3ccccc3)(C(C)C)CC2=O)c(C(C)(C)C)cc1NS(=O)(=O)c1ccc(C#N)cc1 (stereo unspecified) | pIC50 | 8.04 |
| Cc1cc(SC2=C(O)OC(CCc3ccc(O)cc3)(C(C)C)CC2=O)c(C(C)(C)C)cc1OS(=O)(=O)c1ccc(C#N)cc1 (stereo unspecified) | pIC50 | 8.35 |
| Cc1cc(SC2=C(O)OC(CCc3ccccc3)(C(C)C)CC2=O)c(C(C)(C)C)cc1OS(=O)(=O)Cn1ccnc1 (stereo unspecified) | pIC50 | 8.52 |
| CCNS(=O)(=O)Nc1cc(C(C)(C)C)c(SC2=C(O)OC(CCc3ccc(O)cc3)(C(C)C)CC2=O)cc1C (stereo unspecified) | pIC50 | 8.77 |
| Cc1cc(SC2=C(O)OC(CCc3ccccc3)(C(C)C)CC2=O)c(C(C)(C)C)cc1NS(=O)(=O)c1ccccn1 (stereo unspecified) | pIC50 | 8.52 |
| Cc1cc(SC2=C(O)OC(C)(CCc3ccc(O)cc3)CC2=O)c(C(C)(C)C)cc1OS(=O)(=O)c1ccccc1 (stereo unspecified) | pIC50 | 8.01 |
| Cc1cc(SC2=C(O)OC(CCc3ccc(O)cc3)(C(C)C)CC2=O)c(C(C)(C)C)cc1OS(=O)(=O)c1ccc(F)cc1 (stereo unspecified) | pIC50 | 8.02 |
